Entries annotated with measured pIC50
# Tested on: human platelet-rich plasma
# run.description: Inhibition of arachidonic acid-induced aggregation in human platelet-rich plasma
# Type: cell-based
# condition.summary: Homo sapiens, arithmetic average of raw data, N = 3; read-out: inhibitory concentration which blocks aggregation by 50%, AVE
Reminder that pIC50 means the negative base-10 logarithm of the concentration expressed in mol/L.

CCCCC/C=C\C/C=C\C/C=C\C/C=C\CC[C@H]1OC(=O)C(O)=C1O ... 3.18

Here is the next item to consider.
Ask | Record `CCCCC/C=C\C/C=C\C/C=C\C/C=C\CC[C@@H]1OC(=O)C(O)=C1O` : what is its pIC50 with human platelet-rich plasma?
Reply | 5.64
